Test system: EfPiwi piRISC loaded with L1MC piRNA (26 nt)
protocol: pre-steady-state target cleavage rate (min^-1); auxiliary factor: 500 nM Ephydatia muelleri Gtsf1; guide: L1MC piRNA 5'p-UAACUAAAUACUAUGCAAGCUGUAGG; MIWI and MILI are mouse PIWI proteins and EfPiwi is from a freshwater sponge; tags in brackets are library labels; higher = faster piRNA-guided slicing of the target
Tag: Satisfied if measured pre-steady-state target cleavage rate is not below 0.006, Not satisfied if it is.

sequence_input: UCCUGGAUGUGCUUGCAUAGUAAUUAGAUA
group_label: Not satisfied

sequence_input: UCCUCCAACAGCUUGCAUAGUAUUUUCAAA
group_label: Not satisfied

sequence_input: UCCUGGUACAGCUAGCAUAGUAUUUAGAAA
group_label: Not satisfied

sequence_input: UCCUGGAUGAGCUUGCAUAGUAAUUAGUAA
group_label: Not satisfied

sequence_input: UCCUGCUUGAGCUUGCAUAGUAUUUAGAAA
group_label: Not satisfied

sequence_input: UCCUGGAACAGCCUUGCAUAGUAUUUAGUUA
group_label: Satisfied

sequence_input: UCCUGCUACAGCUUGCAUAGUAUUUAGUGA
group_label: Not satisfied

sequence_input: UCCUGGAUGAGCUUACAUAGUAUUUAGUUA
group_label: Not satisfied

sequence_input: UCCUGCUACAGCUUCCAUAGUAUUUAGUAA
group_label: Not satisfied

sequence_input: UCCUGGAUGUGCUUGCCUAGUAUUUAGUUA
group_label: Satisfied

sequence_input: UCCUGGAUGUGCGUGCAUAGUAUUUAGUUA
group_label: Not satisfied

sequence_input: UCCUGCUUCAGCUUGCAUAGUAUUUAGUAA
group_label: Satisfied

sequence_input: UCCUGGAUGUCGAACCAUUGAAUUUAGUUA
group_label: Not satisfied

sequence_input: UCCUGGAACAGCUUGCAUAGAAUUUAGAUA
group_label: Not satisfied

sequence_input: UCCUGGAUGUGCUUGCAUAGUAUUUACAAA
group_label: Not satisfied

sequence_input: UCCUGCUACUCCUUGCAUAGUAUUUACAAA
group_label: Not satisfied

sequence_input: UCCUCCUACAGGUUGCAUUGUAUUUAGUUA
group_label: Satisfied

sequence_input: UCCUGGAUGUGCUUGCAUAGUAUUUGAGUUA
group_label: Satisfied

sequence_input: UCCUCCUACAGCUAGCAUAGUUUUUAGUUA
group_label: Not satisfied

sequence_input: UCCUGCUUCAGCUUGCAUACUAUUUAGUUA
group_label: Satisfied

sequence_input: UCCUGGAUGAGCUUGCUUAGUAAUUAGUUA
group_label: Not satisfied
